# Experimental Target: Human TREM2 (Homo sapiens, UniProt Q9NZC2)
# Construct: expressed in transfected cells
# Sequence (Q9NZC2 19-230): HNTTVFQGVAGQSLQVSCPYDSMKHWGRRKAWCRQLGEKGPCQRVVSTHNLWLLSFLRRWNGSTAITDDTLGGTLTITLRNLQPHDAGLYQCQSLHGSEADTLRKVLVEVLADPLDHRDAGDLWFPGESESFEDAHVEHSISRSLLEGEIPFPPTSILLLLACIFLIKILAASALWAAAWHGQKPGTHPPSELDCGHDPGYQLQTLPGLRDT
# Sequence (O43914 22-113 partner): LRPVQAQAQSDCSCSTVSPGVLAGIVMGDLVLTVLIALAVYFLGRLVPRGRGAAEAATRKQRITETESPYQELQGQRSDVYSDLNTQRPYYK
# Test: Human TREM2 activity: cellular phosphorylation of Syk (AlphaLISA SureFire Ultra p-SYK) in HEK293/DAP12+TREM2 stable cell line
# Type: cell-based
# Assay Conditions: HEK293; maximal response relative to reference agonist example 1B (remaining examples); read-out: Emax
Emax by entry:

Example compounds with recorded Emax:
Compound: Cc1cc([C@H]2CN(c3cc4c(=O)n(C)c(C)nc4c(-c4ccc(C(F)(F)F)nc4)n3)C[C@@H](C)O2)ccn1 (single isomer, unassigned) [Example 199B]
Readout: Emax
Recorded Measurement: 75 to 110%
//
Compound: Cc1nc2c(-c3ccc(C(F)(F)F)nc3)nc(N3CCC(F)(F)[C@@H](c4cnn(C)c4)C3)nc2c(=O)n1C (single isomer, unassigned)
Readout: Emax
Recorded Measurement: 75 to 110%
//
Compound: Cc1nc2c(-c3ccc(Cl)cc3F)nc(N3C[C@@H](c4cnn(C)c4)OC(C)(C)C3)cc2c(=O)n1C (single isomer, unassigned) [Example 112A]
Readout: Emax
Recorded Measurement: 75 to 110%
//
Compound: Cc1nc2c(-c3ccc(Cl)cc3F)nc(N3CCOC(c4nccs4)C3)nc2c(=O)n1C (stereo not drawn)
Readout: Emax
Recorded Measurement: < 75%
//
Compound: Cc1nc2c(-c3ccc(Cl)cc3F)nc(N3CCO[C@@H](c4cnn(C)c4)C3)nc2c(=O)[nH]1 (single isomer, unassigned) [Example 203B]
Readout: Emax
Recorded Measurement: < 75%

Now for another entry.
Entry under test: Cc1nc2c(-c3ccc(C(F)F)nc3)nc(N3C[C@@H](c4cnn(C5CC5)c4)O[C@@H](C)C3)cc2c(=O)n1C (single isomer, unassigned) [Example 194A] . Its Emax was 75 to 110%
